Test: qHTS of pediatric cancer cell lines to identify multiple opportunities for drug repurposing: Confirmatory screen for OHS-50 cells (AID 1347128);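 also: compound exposure lasted 48 h at 37 degrees C; nearly all actives have a fitted effect of over 55% in size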
Details: OHS-50 osteosarcoma cells viability; series mostly up to 45.9 µM
Results filed as inconclusive are left out. Activity calls are given as the source filed them. Calls follow the shape of the dose curve; as a rule, active = well fitted cell-killing curve with a large enough effect; inconclusive = small, poorly fitted or top-dose-only effect, or effect the other way; inactive = no such curve, though single readings can be large or run the other way.
Give one outcome, nothing more. List: t (active), f (inactive)

# example entries with known answers
O=P1(NCCCl)OCCCN1CCCl (stereo not given); f
C[C@@H]1[C@@H](CC(C[C@H]2O[C@@H]3O[C@]4(C)CC[C@@H]5[C@H](C)CC[C@@H]([C@H]2C)[C@@]35OO4)C[S+](=O)([O-])c2ccc(COC(=O)N(C)C)cc2)O[C@@H]2O[C@]3(C)CC[C@H]4[C@H](C)CC[C@@H]1[C@@]24OO3 (stereo not given in full); t
O=c1[nH]c2ccccc2n1CCCN1CCC(n2c(=O)[nH]c3cc(Cl)ccc32)CC1; t
C[C@@H]1O[C@@H](O[C@H]2C[C@@H](O)[C@]3(CO)[C@H]4[C@H](O)C[C@]5(C)[C@@H](C6=CC(=O)OC6)CC[C@]5(O)[C@@H]4CC[C@]3(O)C2)[C@H](O)[C@H](O)[C@H]1O; t

Now let's try a different one.
What did this assay record as the result for COC[C@@H](NC(C)=O)C(=O)NCc1ccccc1 ? f

---

Details: Ebola virus entry assay, green fluorescence channel
Measured potencies and affinities stand elsewhere.
Assign labels as follows, please: Met for efficacy below -10%; Not met for efficacy equal to or exceeding -10%.

# example entries with known answers
CC(=O)N(O)CCCCCNC(=O)CCC(=O)N(O)CCCCCNC(=O)CCC(=O)N(O)CCCCCN; Met
CO[C@H]1C=CO[C@@]2(C)Oc3c(C)c(O)c4c(O)c(c(/C=N/N5CCN(C)CC5)c(O)c4c3C2=O)NC(=O)/C(C)=C\C=C[C@H](C)[C@H](O)[C@@H](C)[C@@H](O)[C@@H](C)[C@H](OC(C)=O)[C@@H]1C; Not met
O=c1[nH]c2ccccc2n1C1CCN(CCCC(c2ccc(F)cc2)c2ccc(F)cc2)CC1; Met
CC(C)=CCOc1c2occc2cc2ccc(=O)oc12; Not met
O=[N+]([O-])c1cc([As](=O)(O)O)ccc1O; Met
CC(C)(C)NC(=O)[C@H]1CC[C@H]2[C@@H]3CC[C@H]4NC(=O)C=C[C@]4(C)[C@H]3CC[C@]12C; Not met
COc1ccc(C(=O)c2c(C)n(CCN3CCOCC3)c3ccccc23)cc1; Met
Nc1nc(N)c2nc(-c3ccccc3)c(N)nc2n1; Not met

I wonder whether CN1CCN(C2=Nc3cc(Cl)ccc3Nc3ccccc32)CC1 has efficacy below -10%. Can you tell? Not met

I wonder whether COC(=O)C(c1ccccc1Cl)N1CCc2sccc2C1 (stereo not drawn) has efficacy below -10%. Can you tell? Not met

---

Experiment: VSVG counterscreen qHTS to identify inhibitors of SARS-CoV-2 cell entry (AID 1645847); also: potency is read from the fitted curve at half-maximal effect; nearly all actives have a fitted effect of over 65% in size
Conditions: VSV-G pseudotyped particle entry, luciferase; series mostly up to 57.2 µM
Results filed as inconclusive are left out. Calls of active or inactive are those of the source. Calls follow the shape of the full dose curve.
Here the recorded Potency is given for each entry.

Example molecules with recorded Potency:
CC(=O)Oc1ccccc1C(=O)Nc1ncc([N+](=O)[O-])s1; 1080 nM (active)
CCC1=C[C@@H]2CN(C1)Cc1c([nH]c3ccccc13)[C@@](C(=O)OC)(c1cc3c(cc1OC)N(C)[C@H]1[C@@](O)(C(=O)OC)[C@H](OC(C)=O)[C@]4(CC)C=CCN5CC[C@]31[C@@H]54)C2; 1670 nM (active)
CCc1c2c(nc3ccc(OC(=O)N4CCC(N5CCCCC5)CC4)cc13)-c1cc3c(c(=O)n1C2)COC(=O)[C@]3(O)CC; 171 nM (active)
CN1CCC(=C2c3ccccc3C=Cc3ccccc32)CC1; 192 nM (active)

Okay, next one:
Value lookup for Potency; key = COC(=O)Nc1nc2ccc(C(=O)c3cccs3)cc2[nH]1 152 nM (active)
